Data provenance: patent US5180825A

test: Acute Toxicity (single intravenous injection); details: mouse, in vivo, ddY mice, single i.v., 14 days observation, Behrens Kaerber's method
recordedEndpoint: LD50 at 336 h (mg/kg)
State just the number; it will be interpreted in mg/kg.

# example entries with known answers
So what does the record say about LD50 at 336 h for CO[C@@]12[C@H](COC(N)=O)C3=C(C(=O)C(CSc4ncccn4)=C(N)C3=O)N1C[C@@H]1N[C@@H]12 [Compound 3] ?
26

So what does the record say about LD50 at 336 h for CO[C@@]12[C@H](COC(N)=O)C3=C(C(=O)C(CS[C@@H]4O[C@H](COC(C)=O)[C@@H](OC(C)=O)[C@H](OC(C)=O)[C@H]4OC(C)=O)=C(N)C3=O)N1C[C@@H]1N[C@@H]12 [Compound 16] ?
38

So what does the record say about LD50 at 336 h for CO[C@@]12[C@H](COC(N)=O)C3=C(C(=O)C(CSc4ncccc4O)=C(N)C3=O)N1C[C@@H]1N[C@@H]12 [Compound 2] ?
15

More entries:
So what does the record say about LD50 at 336 h for CO[C@@]12[C@H](COC(N)=O)C3=C(C(=O)C(CSC4=NCCS4)=C(N)C3=O)N1C[C@@H]1N[C@@H]12 [Compound 11] ?
9.4
